Measured values drawn from ChEMBL document CHEMBL1135666 for this set.

# System: NTPDase1
# method: Kinetic parameter Km value for Bovine spleen NTPDase1 hydrolysis.
# Type: ADME, Bos taurus
# condition-notes: cattle
Would you kindly list Km for each of these compounds?
Answers are plain numbers, in µM.

{"compound": "CSc1nc(N)c2ncn([C@@H]3O[C@H](COP(=O)([O-])OP(=O)([O-])OP(=O)([O-])[O-])[C@@H](O)[C@H]3O)c2n1.[Na+].[Na+].[Na+].[Na+]", "target-desc": "NTPDase1", "Km / µM": 62}
{"compound": "[BH3-]P(=O)(OC[C@H]1O[C@@H](n2cnc3c(N)ncnc32)[C@H](O)[C@@H]1O)OP(=O)([O-])OP(=O)([O-])[O-].[Na+].[Na+].[Na+].[Na+] (stereo partly drawn)", "target-desc": "NTPDase1", "Km / µM": 13.8}

Now for another entry.
Give its Km value. Item: [BH3-]P(=O)(OC[C@H]1O[C@@H](n2cnc3c(N)nc(SC)nc32)[C@H](O)[C@@H]1O)OP(=O)([O-])OP(=O)([O-])[O-].[Na+].[Na+].[Na+].[Na+] (stereo partly drawn)
17.4

---

# target-desc: P2Y purinoceptor 1 (Rattus norvegicus)
# Sequence (P49651 whole entry): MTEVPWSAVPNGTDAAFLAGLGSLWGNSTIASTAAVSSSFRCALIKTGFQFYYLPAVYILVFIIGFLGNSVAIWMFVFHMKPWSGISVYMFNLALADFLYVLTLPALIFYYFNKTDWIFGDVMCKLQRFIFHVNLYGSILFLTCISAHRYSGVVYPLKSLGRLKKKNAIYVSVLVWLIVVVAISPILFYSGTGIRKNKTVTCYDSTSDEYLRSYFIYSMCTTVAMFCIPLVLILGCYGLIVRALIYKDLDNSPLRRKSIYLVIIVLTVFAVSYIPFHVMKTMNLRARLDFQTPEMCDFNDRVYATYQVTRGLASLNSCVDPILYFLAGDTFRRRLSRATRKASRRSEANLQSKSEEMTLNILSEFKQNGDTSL
# method: Agonists activity was evaluated by release of [Ca2+] release of HEK 293 cells stably transfected with rat-brain P2Y purinoceptor 1 (P2Y1-R)
value-kind: EC50 (nM)
Answers are plain numbers, in nM.

Please review the entries below; each comes with its answer.
{"molecule": "[BH3-]P(=O)(OC[C@H]1O[C@@H](n2cnc3c(N)nc(SC)nc32)[C@H](O)[C@@H]1O)OP(=O)([O-])OP(=O)([O-])[O-].[Na+].[Na+].[Na+].[Na+] (stereo partly drawn)", "unit-label": "nM", "EC50": 2.6}
{"molecule": "CSc1nc(N)c2ncn([C@@H]3O[C@H](COP(=O)([O-])OP(=O)([O-])OP(=O)([O-])[O-])[C@@H](O)[C@H]3O)c2n1.[Na+].[Na+].[Na+].[Na+]", "unit-label": "nM", "EC50": 1}

--- query ---
What does the record list as EC50 for [BH3-]P(=O)(OC[C@H]1O[C@@H](n2cnc3c(N)ncnc32)[C@H](O)[C@@H]1O)OP(=O)([O-])OP(=O)([O-])[O-].[Na+].[Na+].[Na+].[Na+] (stereo partly drawn) ?
200
